# TARGET_SYSTEM: recombinant hMAO-B (Homo sapiens (Human))
# Sequence (P27338 whole entry): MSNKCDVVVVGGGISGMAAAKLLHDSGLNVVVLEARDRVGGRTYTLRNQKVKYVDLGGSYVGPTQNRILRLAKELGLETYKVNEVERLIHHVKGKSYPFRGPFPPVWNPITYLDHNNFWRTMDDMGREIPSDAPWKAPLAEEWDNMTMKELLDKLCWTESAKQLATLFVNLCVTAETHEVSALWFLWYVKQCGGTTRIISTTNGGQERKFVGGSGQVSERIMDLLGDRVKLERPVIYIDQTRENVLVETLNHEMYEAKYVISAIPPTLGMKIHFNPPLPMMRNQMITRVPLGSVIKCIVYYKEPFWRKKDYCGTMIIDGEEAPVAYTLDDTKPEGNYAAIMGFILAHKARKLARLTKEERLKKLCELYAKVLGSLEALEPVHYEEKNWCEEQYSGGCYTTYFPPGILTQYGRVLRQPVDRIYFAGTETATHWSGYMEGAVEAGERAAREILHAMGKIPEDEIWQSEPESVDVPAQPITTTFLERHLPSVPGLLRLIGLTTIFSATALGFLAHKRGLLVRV
# ASSAY_REMARKS: MAO-B activity assay (MAO-Glo assay kit)
# MEASUREMENT_PARAMETERS: 4 μM substrate, 30 mins pre-incubation
pIC50: −log10 of the molar value.
Each record here notes measured pIC50.

Worked examples follow.
CC(C)(C)NC(=O)C12CCC(CS(=O)(=O)c3ccc(OC/C(=C/F)CN)cc3)(CC1)CC2 [Compound 70] : 4.52 to 5.00
CC(CN1CCOCC1)CS(=O)(=O)c1ccc(OC/C(=C/F)CN)cc1F (centres unmarked) [Compound 114] : < 4.52
NC/C(=C\F)COc1ccc(S(=O)(=O)CN2CCC3(CCCC3)C2=O)cc1 [Compound 127] : > 5.00

Field: next compound
Recorded pIC50 of NC/C(=C\F)COc1ccc(S(=O)(=O)CC23CCC(NS(=O)(=O)C4CC4)(CC2)CC3)cc1 [Compound 81] , please.
< 4.52

---

# TARGET_SYSTEM: recombinant hSSAO (Homo sapiens (Human), UniProt Q16853)
# Sequence (Q16853 whole entry): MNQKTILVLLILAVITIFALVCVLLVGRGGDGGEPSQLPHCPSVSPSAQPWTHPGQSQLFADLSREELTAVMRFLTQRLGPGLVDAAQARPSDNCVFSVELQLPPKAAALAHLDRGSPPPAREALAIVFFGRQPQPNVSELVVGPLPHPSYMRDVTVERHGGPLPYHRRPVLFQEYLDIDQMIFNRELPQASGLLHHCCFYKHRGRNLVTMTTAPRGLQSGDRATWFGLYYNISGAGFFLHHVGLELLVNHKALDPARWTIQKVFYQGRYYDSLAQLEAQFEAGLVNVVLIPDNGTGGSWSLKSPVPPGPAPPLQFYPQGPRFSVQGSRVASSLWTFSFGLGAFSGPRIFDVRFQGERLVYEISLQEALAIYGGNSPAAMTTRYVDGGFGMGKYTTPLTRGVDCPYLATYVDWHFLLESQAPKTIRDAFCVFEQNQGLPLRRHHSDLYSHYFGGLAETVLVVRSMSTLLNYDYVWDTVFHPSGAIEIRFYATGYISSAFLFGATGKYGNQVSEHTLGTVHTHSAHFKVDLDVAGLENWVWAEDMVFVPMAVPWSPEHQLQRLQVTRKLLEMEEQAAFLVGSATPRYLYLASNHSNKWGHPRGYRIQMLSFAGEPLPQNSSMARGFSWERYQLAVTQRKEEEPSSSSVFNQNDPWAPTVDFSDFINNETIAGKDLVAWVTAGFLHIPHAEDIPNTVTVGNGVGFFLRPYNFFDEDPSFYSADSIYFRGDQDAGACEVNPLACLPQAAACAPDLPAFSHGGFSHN
# ASSAY_REMARKS: SSAO Activity Assay (MAO-Glo assay kit)
# MEASUREMENT_PARAMETERS: 40 μM substrate, 30 mins pre-incubation
ENDPOINT_LABEL: IC50

NC/C(=C/F)COc1ccc(S(=O)(=O)CC23CCC(C(=O)NC4CCC4)(CC2)CC3)cc1 : < 20 nM
CC(C)(C)CC(=O)N1CCC(CS(=O)(=O)c2ccc(OC/C(=C/F)CN)cc2)CC1 : 20 to 100 nM
CC(C)C(=O)N1CCC(CS(=O)(=O)c2ccc(OC/C(=C/F)CN)cc2)C1 (stereo not drawn) : 20 to 100 nM
CC(C)OCCNC(=O)C12CCC(CS(=O)(=O)c3ccc(OC/C(=C/F)CN)cc3)(CC1)CC2 : < 20 nM
CC(C)C(=O)Nc1ccc(CS(=O)(=O)c2ccc(OC/C(=C/F)CN)cc2)cc1 : 20 to 100 nM
NC/C(=C\F)COc1ccc(S(=O)(=O)CC23CCC(C(=O)NC4CCC4)(CC2)C3)cc1 : 20 to 100 nM

Recorded IC50 of CC(C)C(=O)N1CCC(C)(CS(=O)(=O)c2ccc(OC/C(=C/F)CN)cc2)CC1 , please.
20 to 100 nM

Item: NC/C(=C\F)COc1ccc(S(=O)(=O)CC2CCN(C(=O)C34CC5CC(CC(C5)C3)C4)CC2)cc1
100 to 500 nM

Item: CC(C)N1CCN(CS(=O)(=O)c2ccc(OC/C(=C/F)CN)cc2)C(=O)C1
20 to 100 nM

Item: CC1(COCS(=O)(=O)c2ccc(OC/C(=C/F)CN)cc2)CCN(C(=O)C(C)(C)C)CC1
20 to 100 nM

Item: COCC(COC)OCS(=O)(=O)c1ccc(OC/C(=C/F)CN)cc1
20 to 100 nM

Item: NC/C(=C\F)COc1ccc(S(=O)(=O)CC2CCN(C(=O)C3CC(F)(F)C3)CC2)cc1
20 to 100 nM

Item: CC(C)C(=O)N1CC(CS(=O)(=O)c2ccc(OC/C(=C/F)CN)cc2)C1
20 to 100 nM

Item: CC(C)(C)C(=O)NC12CCC(CS(=O)(=O)c3ccc(OC/C(=C/F)CN)cc3)(CC1)C2
20 to 100 nM
